Target: TDP-43 (Homo sapiens, UniProt Q13148 1-414)
Sequence (Q13148 whole entry): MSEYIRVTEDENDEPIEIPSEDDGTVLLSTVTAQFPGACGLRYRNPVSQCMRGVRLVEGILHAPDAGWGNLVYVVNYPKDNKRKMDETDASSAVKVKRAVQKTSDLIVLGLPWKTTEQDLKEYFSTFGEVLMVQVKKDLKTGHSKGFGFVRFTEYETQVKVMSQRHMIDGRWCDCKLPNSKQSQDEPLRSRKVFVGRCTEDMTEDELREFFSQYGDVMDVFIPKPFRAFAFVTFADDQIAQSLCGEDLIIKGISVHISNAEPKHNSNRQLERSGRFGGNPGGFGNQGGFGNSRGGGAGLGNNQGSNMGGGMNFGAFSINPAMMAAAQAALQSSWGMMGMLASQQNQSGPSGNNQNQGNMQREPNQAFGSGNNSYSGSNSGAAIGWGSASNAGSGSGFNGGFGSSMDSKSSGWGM
Assay: RNA Bind-n-Seq with designed 260-mer pool; 25 mM Tris-HCl, 150 mM KCl, 3 mM MgCl2, BSA (printed 500 mg/mL), 20 units/mL SUPERase IN; pH not stated; 500 nM RNA pool, 1 h, 4 C; TDP-43 5, 50, 500 nM; high values mean tight binding
Conditions: protein: recombinant; tags: SBP (GST cleaved off with PreScission; pGEX-GST-SBP)
In all, about 9,900 sequences were measured (“r (bound/input frequency ratio)”: median about 0.7, highest 2% from about 6.5 on). This excerpt belongs to a sample that is enriched for the highest values.
Give binding signal for every item shown.

Name the reported binding signal value associated with the binder ENSMUSG00000029636.244|Wasf3 (ssRNA) RNA: GGGAGUUCUACAGUCCGACGAUCGCUUCGAUAUCCGCAUGCUAUGACAGGGAAUGCCUGUGGGAUAAUUAAAAAUGGUUUUUGCUCAUGAGUUUGGGAUGUCACCCAGCCGCCCACAUCGCCUGCUAUGUGUGUGGACGCCUGUCCGCUUGGCCAGCUAUCCUGUAACACCUGCCAGUAGUAGGUUUUCCUCAUGUCACUAUGACAGUGAAAGCCCAUGUGCAAGCCCCUCCCUACGCCCUGCUUUGGCGUGUGUCUGAGUGCUCUGUGCUGCGCCAUGGCCAUCCUGGAGCCUGCGCACACGCUCUUGCGGUCGCACUAGUGUGGAAUUCUCGGGUGUCAAGG
0.625 R (bound/input frequency ratio)

Name the reported binding signal value associated with the binder ENSMUSG00000022095.44|Fam160b2 (ssRNA) RNA: GGGAGUUCUACAGUCCGACGAUCGCUUCGAUAUCCGCAUGCUACUGGCUCCUAAGGCAGUGGUAUUCUUGGAGCCUUUUAGAGGAGCUAGAGGAUGGCCAGUGAGCGCCUAGAUGCUGCCCUGCAUGUGUUGCGUGACUAUCUCUGCUAUAUUGUGACCAGGGCCACAACAUGAGACAACUCCAGGGGCCAGGGAGAUGAACUGCUGUCUUUGAGGCUGGCUAAAAAAACAAUCCAGUCCAGAGAGAUGGGGAGGGGGGGAGCAAGAACCCUGUCUGUUACAUUAGGUAUCAUGGAAGCUGCUCUCUUGCGGUCGCACUAGUGUGGAAUUCUCGGGUGUCAAGG
1.48 R (bound/input frequency ratio)

Name the reported binding signal value associated with the binder ENSMUSG00000058297.2|Spock2|239:243;247:260 (ssRNA) RNA: GGGAGUUCUACAGUCCGACGAUCGCUUCGAUAUCCGCAUGCUAUGAGGAAGAAAAGGAGACAGAAGAGGCAGGGGAGGAGGCCGAGGAGGAGGAGGGUGAGGCGGGUGAGGCAGAUGAUGGAGGCUACAUCUGGUAGAUAGCCCUCGACGGCCUCGGCAGGCCAGGGUGCCGACGGCCAGAAAGACAGGCCAGAAGAGACCUGGACAACAGCAGGCAACUUAGCAAAUGGAUCCGGAAGUCAGUGCGGAGGACCCUGGCUCCAGUGGGGGAGGACUGGGGACACACGCUACACACAUACACACCUCUUGCGGUCGCACUAGUGUGGAAUUCUCGGGUGUCAAGG
2.26 R (bound/input frequency ratio)

Name the reported binding signal value associated with the binder ENSMUSG00000029636.41|Wasf3|31:35;229:235 (ssRNA) RNA: GGGAGUUCUACAGUCCGACGAUCGCUUCGAUAUCCGCAUGCUACACAUCCUUCUGGAUUUGUUGAGUAUUUACACACAAAUACUUAAGUGCCACAGAACACAGCACACCGUGCUGCACACCAGGAAACUCGCAGUAUUAGUGCAUCACCCUGGAACAGCAUCUUGCUUCCCUCUCAGCCGUGAGAGUCCCCUCUCCUGUCCAUCCUGAUUUGGUGGGCUUGCCACGUAUCUGCGCAGCUGCCCCACGUCAGCUCUCUGCAAGAUCACUGGCACACACACUCAGUGAUGUCUUCCAACCAGUGGCUCUUGCGGUCGCACUAGUGUGGAAUUCUCGGGUGUCAAGG
0.406 R (bound/input frequency ratio)
